MEASUREMENT_TARGET: HLA-A*24:03
MEASUREMENT_DESCRIPTION: IEDB peptide-MHC binding, purified MHC/direct/fluorescence; filed as Kd, often an IC50 or EC50 that approximates it; bounds were set here for any values at or beyond the usual limits of such assays
CONDITION_DESCRIPTION: source organism: Burkholderia mallei ATCC 23344
TEST_READOUT: Kd

>>> endpoint_value("LARFPCNVI")
"≥ 20 µM"

###

MEASUREMENT_TARGET: HLA-B*58:01
MEASUREMENT_DESCRIPTION: IEDB peptide-MHC binding, purified MHC/direct/fluorescence; filed as Kd, often an IC50 or EC50 that approximates it; bounds were set here for any values at or beyond the usual limits of such assays
CONDITION_DESCRIPTION: source organism: Yersinia pestis
TEST_READOUT: Kd (nM)

>>> endpoint_value("TSDGFINGW")
88
